Recorded Ki values for a group of molecules are listed next.
# tested_on: Lysosomal acid glucosylceramidase (Homo sapiens, UniProt P04062)
# Sequence (P04062 whole entry): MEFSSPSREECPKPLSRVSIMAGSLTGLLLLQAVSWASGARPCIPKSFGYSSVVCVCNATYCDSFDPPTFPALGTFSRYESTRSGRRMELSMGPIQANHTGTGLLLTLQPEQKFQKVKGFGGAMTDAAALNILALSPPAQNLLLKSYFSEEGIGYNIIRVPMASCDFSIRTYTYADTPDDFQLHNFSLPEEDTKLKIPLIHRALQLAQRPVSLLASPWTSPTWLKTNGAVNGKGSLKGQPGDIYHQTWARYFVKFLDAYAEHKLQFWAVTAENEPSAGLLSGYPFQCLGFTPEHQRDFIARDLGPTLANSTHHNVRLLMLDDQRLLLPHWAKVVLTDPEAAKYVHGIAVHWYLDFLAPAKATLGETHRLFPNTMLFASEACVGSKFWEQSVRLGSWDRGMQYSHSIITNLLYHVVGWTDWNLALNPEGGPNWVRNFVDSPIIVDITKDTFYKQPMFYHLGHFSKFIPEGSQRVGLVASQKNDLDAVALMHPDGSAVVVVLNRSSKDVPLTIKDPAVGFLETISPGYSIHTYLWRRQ
Write the value in µM as a bare number.

CCCCCCN1C[C@H](O)[C@@H](O)[C@H](O)[C@H]1CO 5.5
CCCCCCCC[C@H]1N[C@H](CO)[C@@H](O)[C@H](O)[C@H]1O 0.28
CCCCCC[C@H]1N[C@H](CO)[C@@H](O)[C@H](O)[C@H]1O 2.3

Kindly review the next molecule as well.
q: Param request: Ki | system Lysosomal acid glucosylceramidase (Homo sapiens, UniProt P04062) | item `CCCC[C@H]1N[C@H](CO)[C@@H](O)[C@H](O)[C@H]1O`
a: 110
